Kindly supply the reported koff values for the records listed here.
- Assayed System: T1, recombinant human TIGIT (human, UniProt Q495A1 22-141, limits assumed)
- T1 construct: recombinant human TIGIT used in Carterra SPR; also called hTIGIT
- T1 sequence (looked up): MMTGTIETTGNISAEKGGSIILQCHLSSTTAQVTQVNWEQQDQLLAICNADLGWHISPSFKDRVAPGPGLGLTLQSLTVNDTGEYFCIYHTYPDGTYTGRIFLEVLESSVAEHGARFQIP
- Protocol Text: SPR Carterra, average
Give bare numbers, in s⁻¹.

The examples below pair each entry with its known result.
stdin: Return reported koff; argument: TIGIT-SC133 (Fc fusion, VHH-Fc fusion in assay) VHH: EVQLVESGGGLVQPGGSLRLSCAASGFTLENNMMGWFRQAPGKEREFVAAISASGTLRAYADSVKGRFTISADNSKNTAYLQMNSLKPEDTAVYYCACGRVSGAFIYFDYWGQGTLVTVSS
stdout: 0.00561

stdin: Return reported koff; argument: TIGIT-SC158 (Fc fusion, VHH-Fc fusion in assay) VHH: EVQLVESGGGLVQPGGSLRLSCAASGFTFSPSWMGWFRQAPGKEREWVASVLRGGYTWYADSVKGRFTISADNSKNTAYLQMNSLKPEDTAVYYCAREGRSSSPWFDPWGQGTLVTVSS
stdout: 0.00154

stdin: Return reported koff; argument: TIGIT-SC108 (Fc fusion, VHH-Fc fusion in assay) VHH: EVQLVESGGGLVQPGGSLRLSCAASGNTFSGGFMGWFRQAPGKEREWVASVLRGGYTWYADSVKGRFTISADNSKNTAYLQMNSLKPEDTAVYYCANGGRVWWAFDYWGQGTLVTVSS
stdout: 0.00181

Then there is this binder:
stdin: Return reported koff; argument: TIGIT-SC116 (Fc fusion, VHH-Fc fusion in assay) VHH: EVQLVESGGGLVQPGGSLRLSCAASGFTFSPSWMGWFRQAPGKEREWVASVLRGGYTWYADSVKGRFTISADNSKNTAYLQMNSLKPEDTAVYYCDAADYWGQGTLVTVSS
stdout: 0.000696
